rat EP4 receptor (Rattus norvegicus) pKi data
Sequence (P43114 whole entry): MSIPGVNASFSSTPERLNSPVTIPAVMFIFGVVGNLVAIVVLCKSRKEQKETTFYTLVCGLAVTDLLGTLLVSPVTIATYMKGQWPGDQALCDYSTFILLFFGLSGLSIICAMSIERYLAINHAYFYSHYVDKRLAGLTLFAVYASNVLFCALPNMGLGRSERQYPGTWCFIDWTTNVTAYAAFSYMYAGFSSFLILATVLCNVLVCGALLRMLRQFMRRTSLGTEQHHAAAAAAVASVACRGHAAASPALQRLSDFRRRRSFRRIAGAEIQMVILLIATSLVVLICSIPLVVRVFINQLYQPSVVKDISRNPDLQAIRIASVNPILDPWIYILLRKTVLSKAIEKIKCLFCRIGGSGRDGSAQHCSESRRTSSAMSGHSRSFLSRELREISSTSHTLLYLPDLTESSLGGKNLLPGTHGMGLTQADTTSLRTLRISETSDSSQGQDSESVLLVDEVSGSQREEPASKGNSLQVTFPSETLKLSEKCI
One number for each entry, as −log10 of the molar value.

Illustrative cases are given below, each with its answer.
[[record]]
compound = "COc1cccc2c1N(Cc1c(Cl)cc(Cl)c(=O)n1CCc1ccc(C(=O)O)cc1)CC2 [Example 146]"
experimental_result = 7.41

[[record]]
compound = "Cc1c(F)ccc2c1N(Cc1c(Cl)cc(Cl)c(=O)n1CCc1ccc(C(=O)O)cc1)CC2 [Example 149]"
experimental_result = 8.02

[[record]]
compound = "Cc1cc(C2CC2)c(CN2CCC[C@@H]2CC(C)C)n(CCc2ccc(C(=O)O)cc2)c1=O [Ex 27]"
experimental_result = 7.60


input: Specify reported pKi for the compound shown: CCC[C@H]1CCCN1Cc1c(Cl)cc(Cl)c(=O)n1CCc1ccc(-c2nnn[nH]2)cc1 [Ex 42]
output: 9.28
